- Species on record: Homo sapiens
- test_details: Selectivity ratio of Ke for human mu opioid receptor to Ke for human kappa opioid receptor
reported_property: Ratio Ke

smiles_record=Cc1cccc(Oc2ccc(C(=O)N[C@H](CN3CCN(c4cccc(O)c4)[C@@H](C)C3)C(C)C)cc2)c1O measured_number=70
smiles_record=Cc1ccc(Oc2ccc(C(=O)N[C@H](CN3CCN(c4cccc(O)c4)[C@@H](C)C3)C(C)C)cc2)cc1 measured_number=29
smiles_record=Cc1cccc(Oc2ccc(C(=O)N[C@H](CN3CCN(c4cccc(O)c4)[C@@H](C)C3)C(C)C)c(C)c2)c1 measured_number=28
